Where do these numbers come from? They come from paper PMC5540273.

System: MEK4
Construct: gene MAP2K4
measurement_context: concentration: 1 μM, replicates: in singlicate; n = 1;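 also: KINOMEscan kinase panel screen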
readout: %Inh (%)
Note: unit % is implicit; provide only the numeric part.

Some solved cases for reference:
| chemical_structure | experimental_system | unit_info | %Inh |
| --- | --- | --- | --- |
| Fc1ccc(Nc2nccc(-c3c(-c4ccc(Cl)cc4)nn4ncccc34)n2)cc1F | MEK4 | % | 30 |
| COC(=O)c1c(-c2ccccc2)c2cc(Cl)ccc2c(=O)n1Cc1ccc(S(C)(=O)=O)cc1 | MEK4 | % | 10 |
| O=c1cc(N2CCOCC2)nc2n(Cc3cccc(Cl)c3)ccn12 | MEK4 | % | 4 |
| CCC(CC)(CC)n1cnc2c(N)ncnc21 | MEK4 | % | 43 |
| Clc1cccc(-c2nc(Nc3ccncc3)c3ccccc3n2)c1 | MEK4 | % | 0 |

Asked: Specify reported %Inh for the compound shown: `OCCOCCn1ccc2ncnc(Nc3ccc(Oc4cccc(Cl)c4)c(Cl)c3)c21`
Given back: 0

Asked: Return %Inh for the following compound: `COc1ccc(-c2oc3ncnc(N)c3c2-c2ccc(OC)cc2)cc1`
Given back: 0

Asked: Please report %Inh for the following compound: `Fc1cccc(COc2ccc(Nc3ncnc4nn5ccccc5c34)cc2Cl)c1`
Given back: 8

Asked: Could you please provide reported %Inh for `CCc1nc(-c2cccc(C)c2)c(-c2ccnc(NC(=O)c3ccccc3)c2)s1` ? Thanks!
Given back: 4

---

Overview of recorded %Inh for various compounds
Test system: S6K1
measurement_context: concentration: 1 μM, replicates: in singlicate; n = 1
Could you write the number and then its unit?

For orientation, consider the following solved cases.
| chemical_structure | test_result |
| --- | --- |
| Cc1cc(N2CCC(NS(=O)(=O)c3ccc(F)cc3)CC2)nc(Nc2cccc(C#N)c2)n1.O=C(O)C(F)(F)F | 0% |
| CS(=O)(=O)CCNCc1ccc(-c2ccc3ncnc(Nc4ccc(OCc5ccccc5)c(Cl)c4)c3c2)o1.Cl | 0% |
| Nc1nc(-c2ccccn2)c(-c2ccnc3ccccc23)s1 | 0% |

Now examine the next entry.
Asked: Quote %Inh reported for `O=C(Nc1n[nH]c2nc(-c3ccco3)c(Br)cc12)c1ccc(CN2CCCC2)cc1.O=C(O)[C@H](O)[C@@H](O)C(=O)O` please.
Given back: 11%

---

Test system: KIT
measurement_context: concentration: 1 μM, replicates: in singlicate; n = 1
Quick rule for you: %Inh at 30% or higher means Fulfilled, lower means Not fulfilled.

Past entries and their recorded results:
| compound | classification |
| --- | --- |
| Cn1cc(-c2ccc3c(c2)CCN3C(=O)Cc2cccc(C(F)(F)F)c2)c2c(N)ncnc21 | Fulfilled |
| O=C(NCCCN1CCCC1=O)c1cnc(NCc2cc(Cl)ccc2Cl)nc1NC1CCNCC1 | Not fulfilled |
| c1ccc(-c2ccc3c(-c4ccnc(Nc5ccc6c(c5)OCCO6)n4)cnn3n2)cc1 | Not fulfilled |
| C[C@@H]1CCN(C(=O)CO)C[C@@H]1N(C)c1ncnc2[nH]ccc12 | Not fulfilled |
| Nc1nc(-c2ccc3c(N)n[nH]c3c2)cc(N2CCCCC2)n1 | Not fulfilled |
| N#Cc1ccc(Oc2ccc(Nc3ncnc4cc[nH]c34)cc2Cl)cc1 | Fulfilled |
| C[C@H]1CC[C@@H](C(=O)Nc2ccccc2)CN1c1cc(-c2ccc3c(N)n[nH]c3c2)nc(N)n1 | Not fulfilled |
| COc1ccc(-c2oc3ncnc(N)c3c2-c2ccc(OC)cc2)cc1 | Fulfilled |

Asked: Could you tell me if the measured %Inh of `Clc1cccc(-c2nc(Nc3ccncc3)c3ccccc3n2)c1` reaches 30% or more?
Given back: Not fulfilled

Asked: Hello, I need to know if `Cl.Fc1ccccc1COc1ccc(Nc2ncnc3ccc(-c4nnc(C(F)(F)F)o4)cc23)cc1Cl` has measured %Inh not below 30%. Thanks!
Given back: Not fulfilled

Asked: Reported %Inh reaches at least 30% for `Cl.Cn1ccc(-c2cccc(Nc3ccnc4cc(-c5nccs5)ccc34)c2)n1` ?
Given back: Fulfilled

Asked: Entry `Clc1cc(Nc2ncnc3cc[nH]c23)ccc1OCc1ccccn1` : is its %Inh no less than 30%?
Given back: Fulfilled

Asked: Would you say `Nc1nc(-c2cccnc2)c(-c2ccnc3ccccc23)s1` shows %Inh at minimum 30%?
Given back: Not fulfilled

Asked: State whether the measured %Inh reaches 30%, counting equality as reaching it, for `CC(=O)Nc1n[nH]c2ncc(-c3ccccc3)cc12`
Given back: Fulfilled

Asked: Hi team, for `Cn1ccc2ncnc(Nc3ccc(Oc4cccc(Cl)c4)c(Cl)c3)c21` , is the recorded %Inh at or above 30%?
Given back: Not fulfilled

Asked: Could you tell me if the measured %Inh of `O=C(CCO)NCCn1ccc2ncnc(Nc3ccc(Oc4cccc(C(F)(F)F)c4)c(Cl)c3)c21` reaches 30% or more?
Given back: Not fulfilled

Asked: Would you say `COc1ccc(NC(=O)Nc2ccc(C)c(-c3ccc(C(=O)Nc4ccncc4)cc3)c2)cc1` shows %Inh at minimum 30%?
Given back: Fulfilled

Asked: Reported %Inh reaches at least 30% for CCCc1ccc(S(=O)(=O)NC2CCN(c3ccnc(Nc4ccc(OC)cc4)n3)C2)cc1 (stereo not drawn) ?
Given back: Fulfilled

Asked: API: above_or_equal(metric=%Inh, cutoff=30%) for item `Nc1n[nH]c2nnc(-c3ccccc3)cc12`
Given back: Not fulfilled

Asked: %Inh >= 30% for `Cc1cc(N2CCC(NS(=O)(=O)c3ccc(F)cc3)CC2)nc(Nc2cccc(C#N)c2)n1.O=C(O)C(F)(F)F` ?
Given back: Not fulfilled

Asked: Given `CCC(CC)(CC)n1cnc2c(N)ncnc21` , state whether its %Inh is at least 30%.
Given back: Not fulfilled

---

Test system: RIPK2
measurement_context: concentration: 1 μM, replicates: in singlicate; n = 1
Kind request: treat 8% as inclusive, so %Inh at 8% or higher is 1, anything lower is -1.

| chemical_structure | experimental_system | classification |
| --- | --- | --- |
| O=C(c1ccc(-c2cc(-c3c[nH]nc3-c3ccccn3)ccn2)cc1)N1CCCC1 | RIPK2 | 1 |
| COc1cc2ncnc(Nc3ccc(OCc4ccccc4Br)c(Cl)c3)c2cc1OC.Cl | RIPK2 | 1 |
| CCc1nc(-c2cccc(N(C)S(=O)(=O)c3ccccc3)c2)c(-c2ccnc(Nc3ccc(N4CCN(C(C)=O)CC4)nc3)n2)s1 | RIPK2 | 1 |
| Cn1cc(-c2ccc3c(c2)CCN3C(=O)Cc2cccc(C(F)(F)F)c2)c2c(N)ncnc21 | RIPK2 | -1 |
| COc1ccc(-c2oc3ncnc(N)c3c2-c2ccc(OC)cc2)cc1 | RIPK2 | 1 |

Asked: Hi team, for `Nc1nccc2scc(-c3ccc4c(c3)CCN4C(=O)Cc3cc(F)ccc3F)c12` , is the recorded %Inh at or above 8%?
Given back: -1

Asked: Check the entry `FC(F)(F)c1cc(Nc2nccc(-c3c(-c4ccc(Cl)cc4)nn4ncccc34)n2)ccc1Cl` : does %Inh equal or exceed 8%?
Given back: -1

Asked: Would you say `CNc1nccc(-c2c(-c3ccc(F)cc3)ncn2CCCN2CCOCC2)n1` shows %Inh at minimum 8%?
Given back: -1

Asked: Does the compound `COC(=O)c1c(-c2ccccc2)c2cc(Cl)ccc2c(=O)n1Cc1ccc(S(C)(=O)=O)cc1` have recorded %Inh that is 8% or more?
Given back: -1

Asked: I'd appreciate it if you could say whether `COC(=O)c1cccc(NC(=O)NCCNc2ccnc(Nc3ccc(F)cc3)n2)c1` has %Inh at least equal to 8%.
Given back: -1

Asked: Reported %Inh at or above 8%? `Fc1ccc(Nc2nccc(-c3c(-c4ccc(Cl)cc4)nn4ncccc34)n2)cc1F`
Given back: 1

---

Below, each entry is listed with its recorded %Inh.
Test system: WNK2
measurement_context: concentration: 1 μM, replicates: in singlicate; n = 1
Give the value, in units of %, as a plain number.

Completed entries (count: 10):
| molecule | unit_info | test_result |
| --- | --- | --- |
| Nc1nc(-c2ccc3c(N)n[nH]c3c2)cc(N2CCCCC2)n1 | % | 0 |
| Fc1cccc(COc2ccc(Nc3ncnc4cc[nH]c34)cc2Cl)c1 | % | 14 |
| O=C(CCO)NCCn1ccc2ncnc(Nc3ccc(Oc4cccc(C(F)(F)F)c4)c(Cl)c3)c21 | % | 0 |
| CCn1c(-c2ccncc2)nc2cnccc21 | % | 29 |
| c1ccc(-c2ccc3c(-c4ccnc(Nc5ccc6c(c5)OCCO6)n4)cnn3n2)cc1 | % | 0 |
| CSc1ccc(NC2=C(c3ccccc3Cl)C(=O)NC2=O)cc1 | % | 3 |
| COc1ccc(Nc2nccc(N3CCC(NC(=O)Nc4ccc5c(c4)OCO5)C3)n2)cc1 (stereo not shown) | % | 0 |
| NC(=O)c1sc(-n2cnc3ccccc32)cc1OCc1ccccc1F | % | 27 |
| Nc1n[nH]c2nnc(-c3ccccc3)cc12 | % | 17 |
| Clc1cccc(-c2nc(Nc3ccncc3)c3ccccc3n2)c1 | % | 0 |

Proceeding to the next molecule to report its %Inh.
Asked: # return %Inh for `COc1ccc(-c2oc3ncnc(N)c3c2-c2ccc(OC)cc2)cc1` , test system: WNK2
Given back: 35
